Biological target: T1, recombinant human HGF (R&D Systems, Catalog No. 294-HGN-025) (human, UniProt P14210 32-728)
T1 construct: Mature HGF is a disulfide-linked heterodimer of alpha and beta chain cut from one precursor; also called rhHGF (R&D Systems); rhHGF
T1 sequence (P14210 32-728 limits assumed): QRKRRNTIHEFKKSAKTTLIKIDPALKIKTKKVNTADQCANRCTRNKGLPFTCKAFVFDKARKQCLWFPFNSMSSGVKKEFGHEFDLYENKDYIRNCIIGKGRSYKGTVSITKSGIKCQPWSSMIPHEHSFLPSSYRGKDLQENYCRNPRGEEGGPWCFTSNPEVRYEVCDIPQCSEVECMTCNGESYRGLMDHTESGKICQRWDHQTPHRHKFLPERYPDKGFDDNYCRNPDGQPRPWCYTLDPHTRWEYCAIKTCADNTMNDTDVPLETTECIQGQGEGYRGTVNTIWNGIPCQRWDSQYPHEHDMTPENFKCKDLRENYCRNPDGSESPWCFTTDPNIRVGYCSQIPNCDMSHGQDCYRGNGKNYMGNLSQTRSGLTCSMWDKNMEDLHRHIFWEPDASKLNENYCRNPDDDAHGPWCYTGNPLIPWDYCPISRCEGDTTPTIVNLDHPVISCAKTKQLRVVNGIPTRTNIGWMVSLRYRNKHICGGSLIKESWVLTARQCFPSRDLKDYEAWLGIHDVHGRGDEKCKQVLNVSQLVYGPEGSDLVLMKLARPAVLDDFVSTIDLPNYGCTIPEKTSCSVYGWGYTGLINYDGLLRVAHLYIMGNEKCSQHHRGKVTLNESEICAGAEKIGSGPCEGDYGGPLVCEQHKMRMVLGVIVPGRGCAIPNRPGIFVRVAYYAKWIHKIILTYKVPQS
Test: SPR, antibody captured by anti-mouse Ig, HGF injected, 25 C
READOUT: koff (s⁻¹)
Express your answer in s⁻¹, writing the number without its unit.

For the binder shown here, anti-hHGF monoclonal antibody 1D3 (antibody, mouse IgG1, kappa, V domains shown, Murine IgG1 kappa from hybridoma) VH: EVQLVESGGGLVQPGGSLKLSCAASGFTFSDYYMSWVRQTPEKRLEWVAYISSGGGSTYYPDSVKGRFTISRDNAKNTLYLQMSSLKSEDTAIYYCVRQGDGYYGDYAMDYWGQGTSVIVSS VL: DIQMTQSPASLSVSVGETVTITCRTSENIYSNLAWYQQKQGKSPQLLIYAATNLADGVPSRFSGSGSGTQFSLRINSLQSEDFGRYYCQHFWGTPYTFGGGTKLEIKR , give the reported koff.
8.2e-05
